- Assay name: Stability in Mueller Hinton Broth
- Format: physicochemical
- Run parameters: read-out: Stability Mueller Hinton Broth t1/2 (converted)
Measurement kind: half-life

Here is how some compounds turned out for half-life.
CSCCC(NC=O)C(=O)NC(CC(C)C)C(=O)Oc1c(C)cc(CO)cc1C (centres unmarked)	> 12 h
CSCCC(NC=O)C(=O)NC(CC(C)C)C(=O)Oc1c(Br)cc(CO)cc1Br (centres unmarked)	2.9 h
CSCCC(NC=O)C(=O)NC(CC(C)C)C(=O)Oc1c(-c2ccccc2)cc(CO)cc1-c1ccccc1 (centres unmarked)	> 12 h
COc1cc(CO)cc(Br)c1OC(=O)C(CC(C)C)NC(=O)C(CCSC)NC=O (centres unmarked)	> 12 h

API: the following record is the query input.
Ask | State the recorded half-life for this entry: CSCCC(NC=O)C(=O)NC(CC(C)C)C(=O)Oc1c(Br)cc(CO)cc1-c1ccco1 (centres unmarked)
Reply | > 12 h

###

Below is a list of entries, each paired with its recorded half-life value.
- Assay name: Stability in PBS, pH 7.4
- Assay type: physicochemical
- Run parameters: pH 7.4, read-out: Stability PBS, pH 7.4 t1/2 (converted)

Here is how some compounds turned out for half-life.
CSCCC(NC=O)C(=O)NC(CC(C)C)C(=O)Oc1c(C)cc(CO)cc1C (centres unmarked)	> 12 h
CSCCC(NC=O)C(=O)NC(CC(C)C)C(=O)Oc1c(Br)cc(CO)cc1Br (centres unmarked)	3.3 h
COc1cc(CO)cc(Br)c1OC(=O)C(CC(C)C)NC(=O)C(CCSC)NC=O (centres unmarked)	> 12 h
CSCCC(NC=O)C(=O)NC(CC(C)C)C(=O)Oc1c(-c2ccccc2)cc(CO)cc1-c1ccccc1 (centres unmarked)	> 12 h

API: the following record is the query input.
Ask | State the recorded half-life for this entry: CSCCC(NC=O)C(=O)NC(CC(C)C)C(=O)Oc1c(Br)cc(CO)cc1-c1ccco1 (centres unmarked)
Reply | > 12 h

###

- Assay name: Stability in PBS, pH 7.4
- Format: physicochemical
- Run parameters: pH 7.4, after 6 hrs
Measurement kind: Stability PBS, pH 7.4 % left after 6 hrs (%)

CSCCC(NC=O)C(=O)NC(CC(C)C)C(=O)Oc1c(Br)cc(CO)cc1-c1ccco1 (stereo not shown) [NB3177]	95
CSCCC(NC=O)C(=O)NC(CC(C)C)C(=O)Oc1c(C)cc(CO)cc1C (stereo not shown) [NB3165]	85
COc1cc(CO)cc(Br)c1OC(=O)C(CC(C)C)NC(=O)C(CCSC)NC=O (stereo not shown) [NB3162]	98
CSCCC(NC=O)C(=O)NC(CC(C)C)C(=O)Oc1c(-c2ccccc2)cc(CO)cc1-c1ccccc1 (stereo not shown) [NB3145]	99

###

- Assay name: Stability in Mueller Hinton Broth
- Type: physicochemical
- Run parameters: after 6 hrs
Measurement kind: Stability Mueller Hinton Broth % left after 6 hrs (%)

CSCCC(NC=O)C(=O)NC(CC(C)C)C(=O)Oc1c(Br)cc(CO)cc1-c1ccco1 (stereo not shown) [NB3177]	89
CSCCC(NC=O)C(=O)NC(CC(C)C)C(=O)Oc1c(-c2ccccc2)cc(CO)cc1-c1ccccc1 (stereo not shown) [NB3145]	99
CSCCC(NC=O)C(=O)NC(CC(C)C)C(=O)Oc1c(C)cc(CO)cc1C (stereo not shown) [NB3165]	95
COc1cc(CO)cc(Br)c1OC(=O)C(CC(C)C)NC(=O)C(CCSC)NC=O (stereo not shown) [NB3162]	91
